Where do these numbers come from? They come from patent US5242908A.

# ASSAY_PROTOCOL: in vitro
# CONDITIONS_USED: hela and vero cells
VALUE_TYPE: MNTC
Your answer should be a number followed by the unit of measure.

Q. What value of measured MNTC is listed for Cc1ccccc1CP(=O)(O)O [O] ?
A. 133 µg/mL

----------
Exercise: for every item that follows, state its recorded Survivors.
# Test system: Herpes simplex 1
# Type: in vivo, NMRI mice
# CONDITIONS_USED: sc 5 × 250 mg/kg; groups of 5 mice
# respond with the number and nothing more

Q. Report Survivors for CCCCOP(=O)(Cc1ccccc1C)OCCCC [M, di-n-butyl 2-methylbenzylphosphonate] tested on Herpes simplex 1.
A. 1

Q. Report Survivors for CCOP(=O)(Cc1cc(C)ccc1C)OCC [K, diethyl 2,5-dimethylbenzylphosphonate] tested on Herpes simplex 1.
A. 3

Q. Report Survivors for Cc1ccccc1CP(=O)(OC(C)C)OC(C)C [L, diisopropyl 2-methylbenzylphosphonate] tested on Herpes simplex 1.
A. 3

Q. Report Survivors for COP(=O)(Cc1ccccc1C)OC [A, dimethyl 2-methylbenzylphosphonate] tested on Herpes simplex 1.
A. 4

----------
Exercise: for every item that follows, state its recorded Survivors.
# Test system: Herpes simplex 1
# Type: in vivo, NMRI mice
# CONDITIONS_USED: sc 5 × 2.5 mg/kg; groups of 5 mice
# respond with the number and nothing more

Q. Report Survivors for Cc1ccccc1CP(=O)(OC(C)C)OC(C)C [L, diisopropyl 2-methylbenzylphosphonate] tested on Herpes simplex 1.
A. 1

Q. Report Survivors for CCCCOP(=O)(Cc1ccccc1C)OCCCC [M, di-n-butyl 2-methylbenzylphosphonate] tested on Herpes simplex 1.
A. 4

Q. Report Survivors for COP(=O)(Cc1ccccc1C)OC [A, dimethyl 2-methylbenzylphosphonate] tested on Herpes simplex 1.
A. 2

Q. Report Survivors for CCOP(=O)(Cc1ccc(Br)cc1)OCC [D, diethyl 4-bromobenzylphosphonate] tested on Herpes simplex 1.
A. 3

Q. Report Survivors for CCOP(=O)(Cc1cc(C)ccc1C)OCC [K, diethyl 2,5-dimethylbenzylphosphonate] tested on Herpes simplex 1.
A. 0
